System Tested: T1, cyno TREM-1 on cells (cynomolgus monkey, UniProt A0A2K5VHG8 21-233)
T1 sequence: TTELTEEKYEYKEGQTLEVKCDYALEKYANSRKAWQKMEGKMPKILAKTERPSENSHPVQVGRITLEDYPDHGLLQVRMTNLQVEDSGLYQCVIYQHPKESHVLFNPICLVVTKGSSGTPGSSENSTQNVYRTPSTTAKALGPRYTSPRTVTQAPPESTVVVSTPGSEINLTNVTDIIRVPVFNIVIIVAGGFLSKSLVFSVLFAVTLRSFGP
Experiment Summary: cell-based or functional assay
Catalogue of Ab IC50-Cyno PBMC (Trial 2), TNFα release after cyno PGLYRP1/PGN readings, one per entry.
Observed Property: Ab IC50-Cyno PBMC (Trial 2), TNFα release after cyno PGLYRP1/PGN (nM)

[
  {
    "Binder": "49A2 (antibody, V domains shown) VH: EVQLVESGGGLVQPGGSLRLSCAASGFTFSSNWMSWVRQAPGKGLDWMASMKQDGSEIYYVDSVKGRFTISRDNAKNSLHLQMNSLRAEDTAVYYCVRGGWRFESWGQGALVTVSS VL: EIVMTQSPATLSVSPGERATLSCRASQSVSSNLAWYQQKSGQAPRLLIYGASIRATGIPARVSGSGSGTEFTFTISSLQSEDFAVYYCQQYKNWPLTLGGGTKVEIKR",
    "Value Reported": 0.266
  },
  {
    "Binder": "66B8 (antibody, V domains shown) VH: QVQLVQSGAEVKKPGASVKVSCKASGYTFTGYYMHWVRQAPGQGLEWMGWFKPNSGVTNYAQKFQGRVTMSRDTSISTAYMELSSLRSDDTAVYYCARAGYSTSWKDWFDPWGQGTLVTVSS VL: DIQMTQFPSSVSASVGDRVTITCRASQGISRWLAWYQQKQGKAPKLLIYMVSSLQSGVPSRFSGSGSGTDFTLTISSLQPEDFATYYCQQSHNFPITFGQGTRLDIKR",
    "Value Reported": 0.0232
  },
  {
    "Binder": "57C10 (antibody, V domains shown) VH: QVQLVQSGAEVKKPGASVKVSCKASGYTFTRYDINWVRQATGQGLEWMGWLNPNSGNTGQTQKFRGRVTMTRNTSINTAYMELSSLRSEDTAVYYCARGGYTSAWRWYFDLWGRGTLVTVSS VL: DIQMTQSPSSLSASVGDRVTITCQASQDINNHLNWYQQKPGKAPKLLIYDVSNLETGVPSSFSGSGCGTDFTFTISSLQPEDIATYFCQQYDKLPLTFGGGTKVEIEG",
    "Value Reported": 0.0284
  },
  {
    "Binder": "64D7 (antibody, V domains shown) VH: QVQLVQSGAEVKKPGASVKVSCKASGYTFTSYDINWVRQATGQGLEWMGWMNPNRGNTGYVKKFQGRVTMTRNTSISTAYMELSSLRSEDTAVYYCARRRAVYRSSWEWYFDLWGRGTLVTVSS VL: DTQMTQSPSSLSASEGDRVTITCQASQDIFNDLNWYQEKPGKAPKLLIYHASNLETGVPSRFSGSGSGTDYTFTISSLQPEDIATYYCQQYGNLPLTFGGGTKVEIKR",
    "Value Reported": 0.78
  },
  {
    "Binder": "61G5 (antibody, V domains shown) VH: QVQLVQSGAEVKKPGASVKVSCKASGYTFTSYDINWVRQATGQGLEWMGWMNPNSGNSGSVKKFRDRVTMTRNTSISTAYMELSSLRSEDTAVYYCVRLIGYSSAWKWSFQHWGQGTLVTVSS VL: DIQMTQSPSSLSASVGDRVTITCQASRDISKYLNWYQQKPGKAPKLQIYDASNLETGVPSRFSGSGSGTDFTFTISSLQPEDIATYYCQHYDNIPITFGQGTRLEIKR",
    "Value Reported": 2.34
  },
  {
    "Binder": "44A5 (antibody, V domains shown) VH: EVQLLESGGGLVQPGGSLRLSCAASGFTFSTYAMNWVRQAPGKGLEWVSTVSGSGRPTYYADSVKGRFTISRDNSKNTLYLQMNSLRAEDTAVYYCAKAYYSNYLFDYWGQGTLVTVSS VL: EIVMTQSPAILSVSPGERATLSCRASQSVSSNLAWYQQKPGQAPRLLIYGASTRATGVPARFSGGGSGTDFTLTISSLQSEDFAVYYCQHCKTWPPLTFGGGTKVDLKR",
    "Value Reported": 0.0091
  },
  {
    "Binder": "63F8 (antibody, V domains shown) VH: QVQLVQSGAEVKKPGASVKVSCKASGYTFTSYDINWVRQATGQGLEWMGRMNPKSGNAGYVQNFRGRVTMTRNTSISTAYMELSSLRSEDTAVYYCARGGRTSIWSFVFDYWGQGTLVTVSS VL: DIQMTQSPSSLSASVGDRVTITCQASQDISKHLNWYQQKPGKAPKLLIYDTSNLETGVPSRFSGSGSGTDFTFTISSLQPEDIATYNCQQYDKLPLTFGGGTKVEIKR",
    "Value Reported": 0.0161
  }
]
